B1: glmS ribozyme (parent)
chain: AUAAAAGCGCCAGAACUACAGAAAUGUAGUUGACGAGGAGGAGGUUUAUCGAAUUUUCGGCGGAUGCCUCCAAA

- Variants of: B1
- Measurement description: KM; higher = weaker cofactor use; RNA array
- Condition description: with glucosamine-6-phosphate
Endpoint: KM (µM)
Your answer should be a plain number; it is taken to be in µM.

Param item = U57A C68U ; retrieve measured KM.
2500

// moving on: another record for KM
# lookup: KM of G41A U46A
1480
